Origin of measurements: patent US20200079833A1

Target: T1, glucose-dependent insulinotropic peptide (gastric inhibitory polypeptide) receptor (GIPR), primary cAMP assay … (human, UniProt P48546 22-466)
T1 sequence (looked up): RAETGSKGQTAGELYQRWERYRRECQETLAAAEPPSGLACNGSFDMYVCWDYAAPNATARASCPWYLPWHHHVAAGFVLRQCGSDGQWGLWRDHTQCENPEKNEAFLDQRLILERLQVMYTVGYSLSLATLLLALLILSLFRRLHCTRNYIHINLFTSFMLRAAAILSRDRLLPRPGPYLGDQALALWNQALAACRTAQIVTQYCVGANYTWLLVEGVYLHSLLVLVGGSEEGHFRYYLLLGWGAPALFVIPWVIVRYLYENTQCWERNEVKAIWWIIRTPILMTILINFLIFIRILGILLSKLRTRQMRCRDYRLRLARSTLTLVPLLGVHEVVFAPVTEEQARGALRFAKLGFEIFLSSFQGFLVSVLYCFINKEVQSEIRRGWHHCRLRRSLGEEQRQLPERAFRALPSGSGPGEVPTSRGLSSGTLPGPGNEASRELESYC
Assay: cell-based or functional assay
Starred links: 1 amine or outer side, 2 acyl side, 3 side chain; linkers in the order of their positions; H or OH if unused. Non-standard residues stand in square brackets, D forms with d. Groups on a side chain read outwards from the residue. Primed or numbered codes have the meaning given here. No end group written: not given here. *: point of attachment. γGlu = O=C(O)[C@H](CCC(=O)[*:2])N[*:1]; αMeF = C[C@](N)(Cc1ccccc1)C(=O)O; αMeK = C[C@](N)(CCCCN)C(=O)O; Lauroyl = CCCCCCCCCCCC(=O)*; αMeS = C[C@](N)(CO)C(=O)O; PEG2′ = not defined here; Aib = CC(C)(N)C(=O)O
QUANTITY_KIND: cAMP Primary assay EC50, n2 (nM)

BINDER	READOUT_UNIT	TEST_RESULT
H[Aib]EGS[αMeF]TSDVSK([PEG2′-PEG2′-γGlu-Lauroyl])YLEGEAA[αMeK]K([PEG2′-PEG2′-γGlu-Lauroyl])FIAK([PEG2′-PEG2′-γGlu-Lauroyl])VVEGG-NH2 [SEQ ID NO: 462]	nM	20
H[Aib]EGS[αMeF]TSDV[αMeS]SK([PEG2′-PEG2′-γGlu-Lauroyl])LEGK([PEG2′-PEG2′-γGlu-Lauroyl])AA[αMeK]EFIAK([PEG2′-PEG2′-γGlu-Lauroyl])VVEGG-NH2 [SEQ ID NO: 464]	nM	20.2
H[Aib]EGS[αMeF]TSDV[αMeS]SK([PEG2′-PEG2′-γGlu-Lauroyl])LEGEAA[αMeK]K([PEG2′-PEG2′-γGlu-Lauroyl])FIAFK([PEG2′-PEG2′-γGlu-Lauroyl])VEGG-NH2 [SEQ ID NO: 482]	nM	20
H[Aib]EGS[αMeF]TSDVSK([PEG2′-PEG2′-γGlu-Lauroyl])YLEGEK([PEG2′-PEG2′-γGlu-Lauroyl])A[αMeK]EFIAFK([PEG2′-PEG2′-γGlu-Lauroyl])VEGG-NH2 [SEQ ID NO: 477]	nM	19.6
